Taken from the kinase profiling compilation of Christmann-Franck et al. (2016).

testSystem: CLK2 (human)
runDescription: radiometric filter-binding kinase assay
studyConditions: compound 1.0 µM
What residual activity was measured for each of the following?
Express the result in % but write the number alone.

Exercise: Look up residual activity for this compound: O=C(NCCCNc1nc(Nc2cccc(CN3CCOCC3)c2)ncc1C1CC1)C1CCC1
Solution: 21

Exercise: Another: Cc1ccc(-c2ccc3c(ccc4sc5c(c43)NC[C@@H](C)NC5=O)n2)cn1
Solution: 43

Exercise: Another: Cc1cc(NC(=O)c2cccc(NC(=O)/C=C/CN(C)C)c2)ccc1Nc1nccc(-c2cccnc2)n1
Solution: 88

Exercise: Another: Cc1cccc(-c2nn(C(=S)Nc3ccccc3)cc2-c2ccnc3ccccc23)n1
Solution: 98

Exercise: Another: C=C1C(=O)OC2C1CC/C(C)=C/CCC1(C)OC21 (stereo not given)
Solution: 90

Exercise: Another: NC(=O)c1cc2c(-c3cccc(-c4ccccc4)c3)cnc(N)c2s1
Solution: 10

Exercise: Another: NC(=O)c1ccc(-c2ccc(Oc3cncc4sc(-c5nn[nH]n5)cc34)cc2)cc1
Solution: 80

Exercise: Another: Cc1ccc(Sc2cnc(Nc3cccc(Br)n3)s2)cc1C(=O)N1CCN(C(=O)CN)CC1
Solution: 3

Exercise: Another: CNC(=O)C1[C@H]2O[C@@](C)([C@@H]1N)n1c3ccccc3c3c4c(c5c6ccccc6n2c5c31)C(=O)NC4 (stereo not given in full)
Solution: -1

Exercise: Another: NC(=O)c1c(NC(=O)C2CC2)sc2c1CCCC2
Solution: 89

Exercise: Another: CNc1nc(-c2ccc3c(N)n[nH]c3c2)cc(N2C[C@@H](C(=O)NC3CCCCC3)CC[C@H]2C)n1
Solution: 98

Exercise: Another: O=C(Nc1ccccc1-c1cn2c(CN3CCNCC3)csc2n1)c1cnc2ccccc2n1
Solution: 60

Exercise: Another: Cc1nc(-c2ccc(OCC(C)C)c(C#N)c2)sc1C(=O)O
Solution: 81

Exercise: Another: N#Cc1c(C2CCNCC2)cc(-c2c(O)cccc2OCC2CC2)nc1N
Solution: 43

Exercise: Another: Oc1ccc2ccccc2c1SSc1c(O)ccc2ccccc12
Solution: 77
